target: human BRD4 first bromodomain (BDI_K57-E168) (Homo sapiens (Human), UniProt O60885); experiment: TR-FRET bromodomain binding assay, BRD4 first bromodomain
Exercise: for every item that follows, state its recorded pKi.
Give bare numbers, as −log10 of the molar value.

Before answering, review these 5 worked examples.
{"structure.as.smiles": "Cn1cc(-c2cc(S(C)(=O)=O)ccc2Oc2ccc(Cl)cc2)c2cc[nH]c2c1=O", "pKi": 7.68}
{"structure.as.smiles": "Cn1cc(-c2cc(-c3cccc(C#N)c3)ccc2OCC2CC2)c2cc[nH]c2c1=O", "pKi": 6.80}
{"structure.as.smiles": "Cn1cc(-c2cc(S(C)(=O)=O)ccc2Oc2cccc3nsnc23)c2cc[nH]c2c1=O", "pKi": 7.86}
{"structure.as.smiles": "Cc1c(NS(C)(=O)=O)ccc(OCC2CC2)c1-c1cn(C)c(=O)c2[nH]ccc12", "pKi": 6.90}
{"structure.as.smiles": "Cn1cc(-c2cc(S(C)(=O)=O)ccc2Oc2cccc(C#N)c2)c2cc[nH]c2c1=O", "pKi": 7.71}

Batch request: pKi per item, same order as input.
1. Cn1cc(-c2cc(C(=O)NCc3ccncc3)ccc2Oc2ccc(F)cc2F)c2cc[nH]c2c1=O
2. CCOC(=O)c1cc2c(-c3cc(NS(C)(=O)=O)ccc3Oc3ccccc3)cn(C)c(=O)c2[nH]1
3. Cn1cc(-c2cc(S(C)(=O)=O)ccc2Oc2ccc(CC(N)=O)cc2)c2cc[nH]c2c1=O

// result
[7.81, 9.09, 8.30]

---

assay: Mouse liver microsome stability assay; type: in vitro ADME; settings: male, CD1, mouse, microsomes, pH 7.4
Exercise: for every item that follows, state its recorded log10 of half-life at 0.5 μM.
# values: log10(half-life at 0.5 μM), units min

{"compound": "Cn1cc(-c2cc(S(N)(=O)=O)cnc2NCC2CC2)c2cc[nH]c2c1=O [Example 209]", "quantity": "log10 of half-life at 0.5 μM", "value.observed": 2.06}
{"compound": "CCS(=O)(=O)Nc1ccc(Oc2c(F)cc(F)cc2F)c(-c2cn(C)c(=O)c3[nH]ccc23)c1 [Example 62]", "quantity": "log10 of half-life at 0.5 μM", "value.observed": 1.40}
{"compound": "Cn1cc(-c2cc(S(C)(=O)=O)ccc2OCC2CCCCC2)c2cc[nH]c2c1=O [Example 224]", "quantity": "log10 of half-life at 0.5 μM", "value.observed": 0.70}
{"compound": "Cn1cc(-c2cc(S(=O)(=O)N3CCc4ccccc43)ccc2OCC2CC2)c2cc[nH]c2c1=O [Example 305]", "quantity": "log10 of half-life at 0.5 μM", "value.observed": 0.30}
{"compound": "CCS(=O)(=O)N(CCN(C)C)c1ccc(Oc2ccc(F)cc2F)c(-c2cn(C)c(=O)c3[nH]ccc23)c1 [Example 296]", "quantity": "log10 of half-life at 0.5 μM", "value.observed": 0.78}

// next entry
log10 of half-life at 0.5 μM for CCS(=O)(=O)Nc1ccc(OC2CCC(F)(F)CC2)c(-c2cn(C)c(=O)c3[nH]ccc23)c1 [Example 101] is 1.30

---

assay: Rat liver microsome stability assay; assay type: in vitro ADME; conditions: rat liver microsomes (male Sprague-Dawley), 0.5 μM test compound, 0.25 mg/mL microsomal protein, pH 7.4, 37° C.; read-out: Stability in rat liver microsomes (t1/2 in minutes)
Returns YES if the recorded half-life at 0.5 μM is greater than or equal to 20 min, and NO otherwise.

Solved cases below.
{"molecule": "CNS(=O)(=O)c1cnc(OC2CCOC2)c(-c2cn(C)c(=O)c3[nH]ccc23)c1 (centres unmarked)", "class": "YES"}
{"molecule": "Cc1c(NS(C)(=O)=O)ccc(OCC2CC2)c1-c1cn(C)c(=O)c2[nH]ccc12", "class": "YES"}
{"molecule": "CC(C)S(=O)(=O)c1ccc(NCC2CC2)c(-c2cn(C)c(=O)c3[nH]ccc23)c1", "class": "NO"}
{"molecule": "Cn1cc(-c2cc(C(=O)NCc3cccnc3)ccc2Oc2ccc(F)cc2F)c2cc[nH]c2c1=O", "class": "YES"}
{"molecule": "CCS(=O)(=O)Nc1ccc(Oc2ccc(F)cc2F)c(-c2nn(C)c(=O)c3[nH]ccc23)c1", "class": "YES"}
{"molecule": "Cn1cc(-c2cc(S(=O)(=O)Nc3ccccc3)ccc2OCC2CC2)c2cc[nH]c2c1=O", "class": "NO"}

Would you kindly look at the next entry?
// query Decide: half-life at 0.5 μM of Cn1nc(-c2ccccc2Oc2ccccc2)c2cc[nH]c2c1=O >= 20 min?
// result NO
